Molecular target: JAK3 (Homo sapiens, UniProt P52333)
Sequence (P52333 1-1124): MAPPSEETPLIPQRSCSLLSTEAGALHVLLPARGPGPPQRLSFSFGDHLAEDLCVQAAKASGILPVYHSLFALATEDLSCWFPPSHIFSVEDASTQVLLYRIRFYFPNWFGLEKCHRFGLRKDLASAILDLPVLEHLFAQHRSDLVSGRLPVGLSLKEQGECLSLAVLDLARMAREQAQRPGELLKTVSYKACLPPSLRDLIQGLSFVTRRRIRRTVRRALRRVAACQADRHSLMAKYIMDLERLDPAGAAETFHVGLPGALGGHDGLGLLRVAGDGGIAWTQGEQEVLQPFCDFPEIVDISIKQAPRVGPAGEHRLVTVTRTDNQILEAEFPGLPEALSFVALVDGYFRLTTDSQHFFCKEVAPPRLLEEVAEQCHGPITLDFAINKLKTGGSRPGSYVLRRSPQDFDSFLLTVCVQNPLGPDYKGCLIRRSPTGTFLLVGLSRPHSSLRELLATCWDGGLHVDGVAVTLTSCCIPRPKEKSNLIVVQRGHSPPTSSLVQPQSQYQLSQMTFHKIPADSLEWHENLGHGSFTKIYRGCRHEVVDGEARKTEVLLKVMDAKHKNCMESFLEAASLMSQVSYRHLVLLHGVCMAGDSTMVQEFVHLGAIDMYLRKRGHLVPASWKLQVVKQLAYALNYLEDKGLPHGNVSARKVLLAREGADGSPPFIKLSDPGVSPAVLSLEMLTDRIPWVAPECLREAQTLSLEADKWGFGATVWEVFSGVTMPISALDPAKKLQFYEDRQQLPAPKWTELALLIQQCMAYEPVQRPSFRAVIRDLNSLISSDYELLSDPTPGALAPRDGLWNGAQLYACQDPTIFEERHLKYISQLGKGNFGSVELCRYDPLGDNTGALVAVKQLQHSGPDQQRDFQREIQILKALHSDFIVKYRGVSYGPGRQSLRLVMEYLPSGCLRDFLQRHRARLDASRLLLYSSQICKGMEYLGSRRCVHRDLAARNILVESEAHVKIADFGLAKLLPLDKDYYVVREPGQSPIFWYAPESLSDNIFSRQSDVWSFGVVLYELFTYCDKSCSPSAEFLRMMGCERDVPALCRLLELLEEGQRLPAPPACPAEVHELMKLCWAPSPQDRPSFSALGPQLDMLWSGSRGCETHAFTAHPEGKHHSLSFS
Assay: JAK kinase activity, homogeneous time-resolved fluorescence (JAK3 reaction system)
Type: biochemical
Conditions: ATP 2 μM, JAK3 protein 0.04 ng/μL; read-out: JAK 3 activity
measure: IC50

// worked examples, IC50 included
# molecule, measure, val
rows = [
    ("CN1CCN(c2ccc3cc2COCCCCNC(=O)c2ccc(c(N)c2)-c2ccnc(n2)N3)CC1 [Example 70]", "IC50", "11 to 100 nM"),
    ("Nc1cc2ccc1-c1ccnc(n1)Nc1ccc(OC3CC3)c(c1)COc1ccc(cc1F)NC2=O [Example 199]", "IC50", "11 to 100 nM"),
    ("O=C1NCCCCOCc2cc(ccc2N2CCCC2)Nc2nccc(n2)-c2ccc1cc2F [Example 34]", "IC50", "11 to 100 nM"),
    ("O=C1NCCCCOCc2cc(ccc2O)Nc2nccc(n2)-c2ccc1cc2[N+](=O)[O-] [Example 81]", "IC50", "101 to 1000 nM"),
    ("Nc1cc2ccc1-c1ccnc(n1)Nc1ccc(Oc3cccc(F)c3)c(c1)COCCCCNC2=O [Example 102]", "IC50", "11 to 100 nM"),
    ("CC(C)Oc1c(F)cc2cc1COCCCCNC(=O)c1ccc(c(N)c1)-c1ccnc(n1)N2 [Example 85]", "IC50", "11 to 100 nM"),
    ("Cc1cnc2nc1-c1ccc(cc1)C(=O)NCCCCOCc1cc(ccc1N1CCOCC1)N2 [Example 5]", "IC50", "11 to 100 nM"),
    ("CC(C)Oc1ccc2cc1COc1ccc(cc1)NC(=O)c1ccc(c(N)c1)-c1ccnc(n1)N2 [Example 198]", "IC50", "11 to 100 nM"),
]

What does the data say about its IC50? Entry: O=C1NCCCCOCc2cc(ccc2N2CCOCC2)Nc2nccc(n2)-c2ccc1c(F)c2 [Example 10]
< 10 nM

Form field: reported IC50 of Nc1cc2ccc1-c1ccnc(n1)Nc1cc(cc(N3CCSCC3)c1)COCCCCNC2=O [Example 77]
11 to 100 nM

Which IC50 is reported for this molecule? Nc1cc2ccc1-c1ccnc(n1)Nc1ccc(Oc3ccc(F)cc3)c(c1)COCCCCNC2=O [Example 107]
11 to 100 nM

Which IC50 value belongs to O=C1NCCCCOCc2cc(ccc2Oc2cccc(F)c2)Nc2nccc(n2)-c2ccc1cc2[N+](=O)[O-] [Example 101] ?
1000 to 10000 nM

What IC50 value was documented for this molecule, COc1cnc2nc1-c1ccc(cc1)C(=O)NCCCCOCc1cc(ccc1N1CCOCC1)N2 [Example 26] ?
11 to 100 nM

Quick one: IC50 of Cc1ccc2cc1COCCCCNC(=O)c1ccc(c(C)c1)-c1ccnc(n1)N2 [Example 39] ?
101 to 1000 nM

So what's the measured IC50 for this one? Nc1cc2ccc1-c1ccnc(n1)Nc1ccc(OCc3cccc4c3COC4)c(c1)COCCCCNC2=O [Example 160]
11 to 100 nM

Report IC50 for O=C1Nc2ccc(cc2)OCc2cc(ccc2OCC2CC(F)(F)C2)Nc2nccc(n2)-c2ccc1cc2[N+](=O)[O-] [Example 209] please.
1000 to 10000 nM

Any idea what its IC50 is? The molecule is COc1cccc(F)c1COc1ccc2cc1COCC[C@H](C)CNC(=O)c1ccc(c(N)c1)-c1ccnc(n1)N2 [Example 192]
101 to 1000 nM

Dear colleague, I am looking for the recorded IC50 of the following molecule: COc1cc(F)cc(F)c1COc1ccc2cc1COCC[C@H](C)CNC(=O)c1ccc(c(N)c1)-c1ccnc(n1)N2 [Example 191]
101 to 1000 nM

----------
target: JAK2 (Homo sapiens, UniProt O60674)
Sequence (O60674 whole entry): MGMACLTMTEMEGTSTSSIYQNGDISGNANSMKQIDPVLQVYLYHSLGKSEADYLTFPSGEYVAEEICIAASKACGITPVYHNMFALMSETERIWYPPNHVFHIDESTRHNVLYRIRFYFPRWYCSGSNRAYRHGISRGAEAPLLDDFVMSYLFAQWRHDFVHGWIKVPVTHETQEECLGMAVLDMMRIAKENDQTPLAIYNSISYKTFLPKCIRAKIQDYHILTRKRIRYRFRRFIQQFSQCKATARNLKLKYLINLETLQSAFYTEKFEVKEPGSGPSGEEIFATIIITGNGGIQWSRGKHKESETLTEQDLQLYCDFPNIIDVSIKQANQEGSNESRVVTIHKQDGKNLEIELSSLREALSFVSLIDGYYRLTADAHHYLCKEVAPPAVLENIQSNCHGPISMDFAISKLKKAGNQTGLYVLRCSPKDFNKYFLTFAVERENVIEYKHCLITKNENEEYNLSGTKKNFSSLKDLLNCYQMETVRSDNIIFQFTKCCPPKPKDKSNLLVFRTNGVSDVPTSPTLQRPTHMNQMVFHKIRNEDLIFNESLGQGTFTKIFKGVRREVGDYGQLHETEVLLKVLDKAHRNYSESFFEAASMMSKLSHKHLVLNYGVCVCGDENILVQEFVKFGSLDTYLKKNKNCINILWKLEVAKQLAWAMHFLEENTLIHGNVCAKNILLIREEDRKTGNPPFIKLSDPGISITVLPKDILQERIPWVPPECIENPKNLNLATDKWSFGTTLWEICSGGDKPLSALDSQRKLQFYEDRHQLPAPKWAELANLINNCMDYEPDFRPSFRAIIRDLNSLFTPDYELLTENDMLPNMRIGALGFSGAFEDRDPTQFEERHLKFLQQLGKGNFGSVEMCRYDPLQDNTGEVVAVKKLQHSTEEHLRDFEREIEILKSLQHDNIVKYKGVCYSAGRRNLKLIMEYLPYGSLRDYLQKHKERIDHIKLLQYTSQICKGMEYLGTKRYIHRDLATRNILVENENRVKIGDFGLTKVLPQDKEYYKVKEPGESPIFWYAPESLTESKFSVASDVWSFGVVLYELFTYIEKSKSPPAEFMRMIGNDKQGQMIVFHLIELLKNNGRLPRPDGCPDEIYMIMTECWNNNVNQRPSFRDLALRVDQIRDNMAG
measure: IC50

Answered cases to consult:
# molecule, IC50
rows = [
    ("Nc1cc2ccc1-c1ccnc(n1)Nc1ccc(OCC3CC(F)(F)C3)c(c1)COCCCCNC2=O [Example 127]", "101 to 1000 nM"),
    ("Nc1cc2ccc1-c1ccnc(n1)Nc1ccc(Oc3cnc4[nH]ccc4c3)c(c1)COCCCCNC2=O [Example 161]", "1000 to 10000 nM"),
    ("Nc1cc2ccc1-c1ccnc(n1)Nc1ccc(OCC3CCC(F)(F)C3)c(c1)COCCCCNC2=O (stereo not shown) [Example 121]", "101 to 1000 nM"),
    ("Nc1cc2ccc1-c1ccnc(n1)Nc1ccc(OC3CC3)c(c1)COCCCCNC2=O [Example 74]", "101 to 1000 nM"),
    ("O=C1NCCCCOCc2cc(ccc2OCC2CCOC2)Nc2nccc(n2)-c2ccc1cc2[N+](=O)[O-] (stereo not shown) [Example 124]", "1000 to 10000 nM"),
]

Notebook entry, JAK2 (Homo sapiens, UniProt O60674) assay: IC50 of CC1CCNC(=O)c2ccc(c([N+](=O)[O-])c2)-c2ccnc(n2)Nc2ccc(OCC3CCC3)c(c2)COC1 (stereo not shown) [Example 141] = ?
> 10000 nM

Can you look up IC50 on JAK2 (Homo sapiens, UniProt O60674) for O=C1NCCCCOCc2cc(cc(N3CCOCC3)c2)Nc2nccc(n2)-c2ccc1cc2 [Example 3] ?
101 to 1000 nM

----------
Entries below carry reported IC50 on TYK2 (Homo sapiens, UniProt P29597).
Sequence (P29597 whole entry): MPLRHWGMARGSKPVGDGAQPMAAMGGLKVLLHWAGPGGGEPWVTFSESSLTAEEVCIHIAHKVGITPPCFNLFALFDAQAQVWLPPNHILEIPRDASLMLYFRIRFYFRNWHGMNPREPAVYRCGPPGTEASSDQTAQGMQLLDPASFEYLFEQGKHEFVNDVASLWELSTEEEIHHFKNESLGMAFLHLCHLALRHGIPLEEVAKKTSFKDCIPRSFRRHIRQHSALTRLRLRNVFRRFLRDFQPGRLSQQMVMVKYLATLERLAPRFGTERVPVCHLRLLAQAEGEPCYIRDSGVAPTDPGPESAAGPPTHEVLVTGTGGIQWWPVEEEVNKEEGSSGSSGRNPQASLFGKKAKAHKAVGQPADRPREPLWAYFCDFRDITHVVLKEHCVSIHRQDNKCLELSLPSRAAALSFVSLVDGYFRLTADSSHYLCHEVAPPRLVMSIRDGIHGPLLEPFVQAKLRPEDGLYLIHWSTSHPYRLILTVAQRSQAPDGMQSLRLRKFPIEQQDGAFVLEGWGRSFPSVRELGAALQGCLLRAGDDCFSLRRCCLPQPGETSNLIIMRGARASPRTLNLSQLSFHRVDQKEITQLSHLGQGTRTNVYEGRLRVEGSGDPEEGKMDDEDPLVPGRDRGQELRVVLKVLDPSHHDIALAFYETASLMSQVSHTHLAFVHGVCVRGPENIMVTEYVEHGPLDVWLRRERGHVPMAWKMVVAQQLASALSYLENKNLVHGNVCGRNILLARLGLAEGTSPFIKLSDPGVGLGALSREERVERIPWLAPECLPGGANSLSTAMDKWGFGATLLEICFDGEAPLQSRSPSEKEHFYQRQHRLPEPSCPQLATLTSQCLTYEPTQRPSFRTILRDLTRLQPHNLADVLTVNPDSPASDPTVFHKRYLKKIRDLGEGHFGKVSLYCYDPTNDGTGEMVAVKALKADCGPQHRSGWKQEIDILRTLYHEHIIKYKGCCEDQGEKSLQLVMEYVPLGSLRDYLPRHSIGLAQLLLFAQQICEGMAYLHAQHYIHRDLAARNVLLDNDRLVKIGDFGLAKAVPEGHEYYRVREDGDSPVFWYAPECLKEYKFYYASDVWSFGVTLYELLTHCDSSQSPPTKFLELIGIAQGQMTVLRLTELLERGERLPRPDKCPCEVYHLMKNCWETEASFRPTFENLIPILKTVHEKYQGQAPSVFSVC

Study these solved cases before continuing.
# compound, IC50
records = [
    ("O=C1NCCCCOCc2cc(cc(N3CCSCC3)c2)Nc2nccc(n2)-c2ccc1cc2[N+](=O)[O-] [Example 76]", "> 10 µM"),
    ("Cc1cc2ccc1-c1ccnc(n1)Nc1ccc(N3CCOCC3)c(c1)COCCCCNC2=O [Example 23]", "1 to 10 µM"),
]

Requested read-out: IC50. Entry: O=C1NCCCCOCc2cc(cc(N3CCOCC3)c2)Nc2nccc(n2)-c2ccc1cc2 [Example 3]
> 10 µM

Would you mind telling me what IC50 value was observed for Cc1ccc2cc1COCCCCNC(=O)c1ccc(c(C)c1)-c1nc(ncc1C)N2 [Example 37] ?
> 10 µM

----------
biological target: JAK3 (Homo sapiens); test: JAK kinase activity, homogeneous time-resolved fluorescence (JAK3 reaction system); type: biochemical; conditions: ATP 2 μM, JAK3 protein 0.04 ng/μL; read-out: JAK 3 activity
measure: IC50

# compound, val
data = [
    ("O=C1NCCCCOCc2cc(ccc2N2CCOCC2)Nc2nccc(n2)-c2ccc1cc2C(F)(F)F", "1000 to 10000 nM"),
    ("O=C1NCCCCOCc2cc(ccc2N2CCCCC2)Nc2nccc(n2)-c2ccc1cc2F", "11 to 100 nM"),
    ("Nc1cc2ccc1-c1ccnc(n1)Nc1ccc(Oc3ccccc3F)c(c1)COCCCCNC2=O", "11 to 100 nM"),
    ("Nc1cc2ccc1-c1ccnc(n1)Nc1ccc(OCC3CCc4ccccc43)c(c1)COCCCCNC2=O (centres unmarked)", "11 to 100 nM"),
    ("Nc1cc2ccc1-c1ccnc(n1)Nc1ccc(OCC3CCC3)c(c1)COCCCCNC2=O", "< 10 nM"),
]

Which IC50 value is on record for COc1cc(C#N)cc(F)c1COc1ccc2cc1COCCCCNC(=O)c1ccc(c(N)c1)-c1ccnc(n1)N2 ?
< 10 nM

What does the record list as IC50 for O=C1NCCCCOCc2cc(cc(N3CCOCC3)c2)Nc2nccc(n2)-c2ccc1cc2F ?
11 to 100 nM

Fill in the blank: the reported IC50 of Nc1cc2ccc1-c1ccnc(n1)Nc1ccc(N3CCOCC3)c(c1)COCCCCNC2=O is ____.
< 10 nM

# input compound: O=C1NCCCCOCc2cc(ccc2Br)Nc2nccc(n2)-c2ccc1cc2[N+](=O)[O-] ; wanted: its IC50
1000 to 10000 nM

What does the record list as IC50 for Nc1cc2ccc1-c1ccnc(n1)Nc1ccc(Br)c(c1)COCCCCNC2=O ?
11 to 100 nM

What measured IC50 goes with Nc1cc2ccc1-c1ccnc(n1)Nc1ccc(OCc3ccccc3)c(c1)COCCCCNC2=O ?
11 to 100 nM
